Experiment: gradient 5% acetonitrile 3 min, to 50% in 2 min, to 85% in 15 min, held 3 min, 100 µL/min
Conditions: column: Zorbax Extend-C18 2.1 x 50 mm; eluents: water / acetonitrile, 0.1% formic acid
Recorded measurements of RP-LC retention time, one per entry
Value type: RP-LC retention time (s)

Cc1ncccc1C(=O)N1[C@H]2CC[C@@H]1c1cnc(-c3ccc(F)cc3)nc1C2 705
COC(=O)C1=CN(c2cccc(C(F)(F)F)c2)c2ccccc2S1(=O)=O 900
O=C(c1ccc(-c2ccsc2)nc1)N1CCN(c2ccccn2)CC1 604
CCCCCn1c(=O)c2ccccc2n(Cc2nc(-c3ccccc3)no2)c1=O 1240
Cc1cc(C)n2c(Nc3ccc(Cl)cc3)c(-c3ccc(Cl)cc3)nc2n1 886
